# System: Mus musculus
# Protocol details: Toxicity in ip dosed C3H X DBA2 F1 hybrid mouse […] with mouse L1210 cells on day 0 and dosed once daily on days 1 to 5 measured after 50 days
# Type: organism-based
# Condition: in vivo, 1200 h
# note: exactly 20 mg/kg is not below, so it is condition not met; use condition met for LD10 strictly under it

Some entries whose results are on file:
| Molecular string | Class name |
| --- | --- |
| CCC[n+]1ccc(Nc2ccc(NC(=O)c3ccc(Nc4cc[n+](CCC)c5ccc(N)cc45)cc3)cc2N)cc1.[I-].[I-] | condition met |
| CC[n+]1cccc(NC(=O)c2ccc(NC(=O)c3ccc(C(=O)Nc4ccc(C(=O)Nc5ccc[n+](CC)c5)cc4C)cc3)c(C)c2)c1.Cc1ccc(S(=O)(=O)[O-])cc1.Cc1ccc(S(=O)(=O)[O-])cc1 | condition met |
| C[n+]1cccc2cc(NC(=O)c3ccc(NC(=O)c4ccc(C(=O)Nc5ccc6c(ccc[n+]6C)c5)cc4)cc3)ccc21.Cc1ccc(S(=O)(=O)[O-])cc1.Cc1ccc(S(=O)(=O)[O-])cc1 | condition not met |

// switching to the query molecule
Exam item: Please indicate whether the reported LD10 of "COc1cc(C(=O)Nc2ccc[n+](C)c2)ccc1NC(=O)c1ccc(C(=O)Nc2ccc(C(=O)Nc3ccc[n+](C)c3)cc2OC)cc1.Cc1ccc(S(=O)(=O)[O-])cc1.Cc1ccc(S(=O)(=O)[O-])cc1" is strictly below 20 mg/kg.
Marked response: condition not met
